// note: pIC50 values for Receptor-interacting serine/threonine-protein kinase 1 (Homo sapiens, UniProt Q13546) were reported in different studies
Notebook: values listed as pIC50 are -log10 of the concentration (mol/L).

# count of solved cases: 3
N#Cc1cc(N2CC3CC(C(=O)N4N=CCC4c4ccccc4)CC3C2)ncn1 (stereo not shown): 6.77
Cc1cc(=O)c(C(=O)Nc2c(C(C)C)ncnc2C(C)C)nn1-c1ccccc1: 5.41
O=C(Nc1cccc(Cl)c1F)c1cc(O)n(Cc2cnccn2)n1: 4.51

q: Param readout= pIC50; system= Receptor-interacting serine/threonine-protein kinase 1 (Homo sapiens, UniProt Q13546); entry= `O=C1c2nc(Cc3ccccc3)cn2CCN1c1cccc(Cl)c1F` ; returns value.
a: 5.50

q: Hello, I am looking for reported pIC50 with Receptor-interacting serine/threonine-protein kinase 1 (Homo sapiens, UniProt Q13546) for `O=C(Nc1cc(Cl)cc(Cl)c1)c1n[nH]c(Cc2ccccc2)n1` . Could you help?
a: 5.47

q: Missing value: pIC50, Receptor-interacting serine/threonine-protein kinase 1 (Homo sapiens, UniProt Q13546), entry `Cc1cccc(C2CC2)c1NC(=O)c1nn(-c2ccccc2)c(C)cc1=O` . Fill in?
a: 6.18

q: Short answer please: pIC50, Receptor-interacting serine/threonine-protein kinase 1 (Homo sapiens, UniProt Q13546), entry `Nc1nc2ccc(-c3cnc4c(c3)C(=O)N(Cc3cc(F)cc(F)c3OC3CC3)CC4)cc2s1`
a: 7.47

* * *

The entries below pair compounds with pIC50 values for Receptor-interacting serine/threonine-protein kinase 1 (Homo sapiens, UniProt Q13546), as found in several publications.
Field pIC50 (float): negative decimal logarithm of the concentration in molar.

Observe how each entry below is paired with its result.
Cc1cc(=O)c(C(=O)NC2CCc3ccccc3NC2=O)nn1-c1cccc(Cl)c1 (stereo not shown): 7.24
O=C(Nc1cccc(Cl)c1F)c1ncn(Cc2cncc(F)c2)n1: 7.08
Cc1cc(=O)c(C(=O)Nc2cccc(Cl)c2)nn1-c1ccccc1: 7.10
Cc1nn(C)c(C)c1NC(=O)c1nn(-c2ccccc2)c(C)cc1=O: 5.34
[2H]C([2H])([2H])N1C(=O)C(NC(=O)c2cc(Oc3ccccc3)ccn2)CCc2ccc(C#CC(C)(C)O)cc21 (racemic): 7.49

q: Find the recorded pIC50 belonging to Cc1c(Br)c(=O)c(C(=O)NC2CCc3ccccc3NC2=O)nn1-c1ccccc1 (stereo not shown) and report it.
a: 7.44

q: # input compound: [2H]C([2H])([2H])N1C(=O)C(NC(=O)c2cc(Oc3ccccc3)ccn2)CCc2ccc(N3CC4(CCOCC4)C3)cc21 (racemic) ; wanted: its pIC50
a: 7.38

q: Given the entry `O=C(Nc1cccc(Cl)c1F)c1ncn(Cc2ncccc2F)n1` , report its measured pIC50.
a: 6.71

* * *

pIC50: −log10 of the molar value.
pIC50 for Receptor-interacting serine/threonine-protein kinase 1 (Homo sapiens, UniProt Q13546) - collated from the literature.

Cc1ccc(NC(=O)c2ccn(-c3ccc(F)cc3)n2)cc1C#Cc1cnc2cccnn12: > 6.30
CN1CCN(C(=O)c2ccnc(N3CCC(C(=O)N4N=CC[C@H]4c4ccccc4)CC3)n2)CC1: 7.50 to 9.00
NC(=O)c1cnc(N2CCC(C(=O)N3N=CC[C@H]3c3cc(F)cc(F)c3)CC2)nc1: 7.50 to 9.00
NC(=O)c1coc(N2CCC(C(=O)N3N=CC[C@H]3c3cc(F)cc(F)c3)CC2)n1: 7.50 to 9.00
Cn1cc(C(=O)N2CCC[C@H]2c2ccc(F)c(F)c2)c2cc(-c3ccn4nc(NC(=O)C5CC5)nc4c3)ccc21: > 9.00
O=C1c2cc(Cc3ccccc3)ccc2CN1c1ccccc1F: 5.61
C[C@H](NC(=O)c1cn(C)c2ccc(-c3ccn4nc(NC(=O)[C@@H]5C[C@@H]5F)nc4c3)cc12)c1cccc(F)c1: 7.00 to 8.00

Next compound, pIC50 to be filled in.
q: Report pIC50 for C[C@H](c1ccc(F)cc1)n1cc(N2CCc3ncc(-c4ccn5nc(N)nc5c4)cc3C2=O)cn1 (single isomer, unassigned) tested on Receptor-interacting serine/threonine-protein kinase 1 (Homo sapiens, UniProt Q13546).
a: 6.71

* * *

Below: compounds with IC50 recorded for Receptor-interacting serine/threonine-protein kinase 1 (Homo sapiens, UniProt Q13546) in separate published works.

# example entries with known answers
Cc1nocc1NC(=O)c1nn(-c2ccccc2)c(C)cc1=O: 17600 nM
Cc1cc(=O)c(C(=O)Nc2c3c(nc4ccccc24)CCCC3)nn1-c1ccccc1: 1140 nM
N#Cc1ccc(CNC(=O)c2c[nH]c3ccc(-c4ccc5nc(NC(=O)C6CC6)sc5c4)cc23)cc1: 10 to 100 nM
CCC(C)(C)C(=O)N(O)Cc1ccc(Cl)c(F)c1: < 100 nM

# context switch: different compound, same IC50
q: Identify the measured IC50 of `Cc1cc(=O)c(C(=O)Nc2ccccc2)nn1-c1cccc(Cl)c1F` for Receptor-interacting serine/threonine-protein kinase 1 (Homo sapiens, UniProt Q13546).
a: 1600 nM

* * *

Literature compilation of pIC50 measurements on Receptor-interacting serine/threonine-protein kinase 1 (Homo sapiens).
Kindly note that pIC50 refers to -log10 of the concentration in mol/L and answer with the value alone.

Worked examples follow.
Cc1cc(=O)c(C(=O)Nc2ccccc2F)nn1-c1ccccc1: 4.54
Cc1nc(C(=O)Nc2cccc(Cl)c2F)nn1Cc1cnccn1: 6.96
Cc1cc(=O)c(C(=O)Nc2c(C(C)C)nn(C)c2C(C)C)nn1-c1ccccc1: 4.73
Cc1cc(=O)c(C(=O)NC2CCc3ccccc3NC2=O)nn1-c1cccc(C#N)c1 (stereo not shown): 6.19
COc1ncc(-c2ccc3nc(N)sc3c2)cc1C(=O)NCc1cccc(OC(F)(F)F)c1: 7.77
CCn1c(NC(=O)c2nn(-c3ccccc3)c(C)cc2=O)nc2ccccc21: 5.33
Cc1c(C#N)c(=O)c(C(=O)NC2CCc3ccccc3N(C)C2=O)nn1-c1ccccc1 (stereo not shown): 7.14

// below: pIC50 requested for another molecule
q: Value wanted: pIC50 (Receptor-interacting serine/threonine-protein kinase 1 (Homo sapiens)) of entry COc1ncc(-c2ccc3nc(NC(=O)C4CC4)sc3c2)cc1C(=O)N[C@@H](C)c1ccccc1OC(F)(F)F (single isomer, unassigned)
a: 7.22

* * *

Listing of IC50 toward Receptor-interacting serine/threonine-protein kinase 1 (Homo sapiens), each taken from a published source.
Cut-off 40 nM on IC50: below means t, at or above means f.

Study these solved cases before continuing.
Cc1cc(C)c2nc(NC(=O)c3nn(-c4ccccc4)c(C)cc3=O)sc2c1: f
Cc1c(Br)c(=O)c(C(=O)NC2CCc3cc(C#N)ccc3NC2=O)nn1-c1ccccc1 (stereo not shown): f
COc1ccc([C@@H](C)NC(=O)c2cn(C)c3ccc(-c4ccn5nc(NC(=O)C(C)C)nc5c4)cc23)cc1: f

q: For this compound, is IC50 lower than 40 nM? Cc1cc(=O)c(C(=O)NC2CCc3ccccc3NC2=O)nn1-c1ccc(F)cc1 (stereo not shown)
a: t

q: Lab log: compare recorded IC50 with 40 nM; is it strictly lower for `CN1C(=O)[C@@H](NC(=O)c2cc(Oc3ccccc3)ccn2)CCc2ccc(C#CC3(O)COC3)cc21` ?
a: t

q: Check if IC50 falls below 40 nM for Cc1ccc(-n2nc(C(=O)NC3CCc4ccccc4NC3=O)c(=O)cc2C)cc1 (stereo not shown) .
a: t

q: Hi there! Is IC50 for Cc1cc(=O)c(C(=O)NC2CCc3cc(F)cc(F)c3NC2=O)nn1-c1ccccc1 (stereo not shown) below 40 nM, do you know?
a: f

q: Consider `Cn1cc(C(=O)Nc2cccc(Cl)c2F)nc1Cc1ccccc1` . Does its IC50 lie strictly below 40 nM?
a: f

q: is_below(IC50, 40 nM) for CN1C(=O)C(NC(=O)c2n[nH]c(Cc3ccccc3)n2)CCc2ccc(C#Cc3ccccn3)cc21 (racemic) ?
a: t

q: Hello, is IC50 of the following compound strictly smaller than 40 nM? Cc1cc(=O)c(C(=O)NC2CCc3ccccc3NC2=O)nn1-c1cccc(F)c1 (stereo not shown)
a: t

* * *

The entries below pair compounds with pIC50 values for Receptor-interacting serine/threonine-protein kinase 1 (Homo sapiens), as found in several publications.
Bear in mind: pIC50 is minus log10 of a mol/L concentration; give just that figure.

Here's what some known entries look like.
Cc1cc(=O)c(C(=O)Nc2cccc(Cl)c2F)nn1-c1cccc(Cl)c1: 7.28
Cc1cc(=O)c(C(=O)NC2CCn3nccc3N(C)C2=O)nn1-c1ccccc1 (stereo not shown): 7.04
O=C(NC1CCc2ccc(CN3CCN(c4ccncc4)CC3)cc2NC1=O)c1cc(Oc2ccccc2)ccn1 (racemic): 6.18

q: Need pIC50, item `Cc1cc(=O)c(C(=O)Nc2ccn3nccc3c2)nn1-c1ccccc1`
a: 4.81

q: // returns reported pIC50 for input Cc1cc(=O)c(C(=O)N2CCC(Oc3ccccn3)C2)nn1-c1ccccc1 (stereo not shown)
a: 4.53

q: // query pIC50 value for entry CN1C(=O)C(NC(=O)n2cc(Cc3ccccc3)cn2)CCc2ccc(N3CC4(CCOCC4)C3)cc21 (racemic)
a: 7.21

q: Param item = Cc1cc(=O)c(C(=O)NC2CCc3cc(F)cc(F)c3N(C)C2=O)nn1-c1ccccc1 (stereo not shown) ; retrieve measured pIC50.
a: 7.19

q: Can you look up the measured pIC50 of `O=C(Nc1cccc(Cl)c1F)c1nc(Cc2ccccc2)c(Cl)[nH]1` for me?
a: 4.73
